Record form. Attribute: hCRHR1 Luciferase Reporter Assay IC50. Fill in for each entry.
# tested_target: T1, corticotropin-releasing hormone (CRH) peptide (human and mouse (same sequence), not fully specified)
# T1 peptide: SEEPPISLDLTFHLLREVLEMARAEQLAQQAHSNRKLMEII
# procedure_summary: cell-based or functional assay
One number for each entry, in nM.

// batch mode: one hCRHR1 Luciferase Reporter Assay IC50 value per listed entry
1. PR302341-63 (antibody, human IgG1, kappa, V domains shown) VH: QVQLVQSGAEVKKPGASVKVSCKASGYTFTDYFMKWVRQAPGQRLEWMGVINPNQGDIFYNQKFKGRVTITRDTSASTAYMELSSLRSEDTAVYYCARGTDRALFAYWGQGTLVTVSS VL: DVVMTQSPLSLPVTLGQPASISCRSGQSIVHSEGNTYLEWYQQRPGQSPRLLIYKVSNRFSGVPDRFSGSGSGTDFTLKISRVEAEDLGVYYCFQGSHIPWTFGGGTKVEIKR
2. PR302341-59 (antibody, human IgG1, kappa, V domains shown) VH: QVQLVQSGAEVKKPGASVKVSCKASGYTFTDYFMKWVRQAPGQRLEWMGVINPNSGDIFYNQKFKGRVTITRDTSASTAYMELSSLRSEDTAVYYCARGTDRALFAYWGQGTLVTVSS VL: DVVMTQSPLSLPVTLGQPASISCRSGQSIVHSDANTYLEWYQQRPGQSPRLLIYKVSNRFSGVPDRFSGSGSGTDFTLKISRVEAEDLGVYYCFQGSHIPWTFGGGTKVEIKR

[2.05, 1.04]
